experiment: recombinant UMI read abundance after kanamycin selection (control-corrected) (log10(CPM+1)); higher = more efficient recombination; extreme values may be limits of the assay; sequences stand for … in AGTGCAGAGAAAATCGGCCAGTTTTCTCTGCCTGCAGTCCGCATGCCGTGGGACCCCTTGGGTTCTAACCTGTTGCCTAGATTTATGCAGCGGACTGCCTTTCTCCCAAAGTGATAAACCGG…AGGTTGGTTTCACT; site = the 11-nt donor
recorded metric: recombinant UMI read abundance (log10)
Just the number, please.

For record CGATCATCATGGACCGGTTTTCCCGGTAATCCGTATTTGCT (site CGATCATCTTA) the listed recombinant UMI read abundance (log10) is 0

For record AACCGTACATGGACCGGTTTTCCCGGTAATCCGTATTTGAT (site AACCGTCCTAT) the listed recombinant UMI read abundance (log10) is 0.0158

For record CTGTTAGCATGGACCGGTTTTCCCGGTAATCCGTATTTGTG (site CCGTTAGCTCA) the listed recombinant UMI read abundance (log10) is 0.102

For record GACATACCATGGACCGGTTTTCCCGGTAATCCGTATTTGGT (site GACATACCTAC) the listed recombinant UMI read abundance (log10) is 0.0102

For record TGGCATCCATGGACCGGTTTTCCCGGTAATCCGTATTTGTT (site TGGCATCCTAA) the listed recombinant UMI read abundance (log10) is 0.165

###

assay: recombinant barcode read abundance after kanamycin selection (control-corrected) (log10(CPM+1)); higher = more efficient recombination; sequences stand for … in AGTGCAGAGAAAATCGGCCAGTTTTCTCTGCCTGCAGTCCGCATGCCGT…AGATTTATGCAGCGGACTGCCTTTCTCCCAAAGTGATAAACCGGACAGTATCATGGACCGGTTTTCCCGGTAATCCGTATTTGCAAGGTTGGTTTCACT; site = the 11-nt target
Provide the reported recombinant barcode read abundance (log10) of each item.
Just the number, please.

For record CACTTGTCTTGGGTTCTAACCTGTTGCCT (site CACTTGGCTAG) the listed recombinant barcode read abundance (log10) is 0.283

For record ATGGCCTCTTGGGTTCTAACCTGTTGCCT (site ATGACCTCTAG) the listed recombinant barcode read abundance (log10) is 0.822

For record GAGGTAACTTGGGTTCTAACCTGTTGCAC (site TGTACGCCTAG) the listed recombinant barcode read abundance (log10) is 0.0446

For record CGGGCGTCTTGGGTTCTAACCTGTTGCTT (site CGGACGTCTCA) the listed recombinant barcode read abundance (log10) is 0.148

For record ACCGGGACTTGGGTTCTAACCTGTTGCCT (site ACCGAGACTAG) the listed recombinant barcode read abundance (log10) is 0.285

###

experiment: recombinant UMI read abundance after kanamycin selection (control-corrected) (log10(CPM+1)); higher = more efficient recombination; extreme values may be limits of the assay; sequences stand for … in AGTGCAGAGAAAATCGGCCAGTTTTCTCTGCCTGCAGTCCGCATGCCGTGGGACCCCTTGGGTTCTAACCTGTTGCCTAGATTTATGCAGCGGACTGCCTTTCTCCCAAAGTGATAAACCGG…AGGTTGGTTTCACT; site = the 11-nt donor
Response key: TRUE means recombinant UMI read abundance (log10) >= 0.009; FALSE means recombinant UMI read abundance (log10) < 0.009.

// inclusive: recombinant UMI read abundance (log10) at least 0.009? input: ACACAGCCATGGACCGGTTTTCCCGGTAATCCGTATTTGAC (site ACACAGCCTGT)
TRUE

// inclusive: recombinant UMI read abundance (log10) at least 0.009? input: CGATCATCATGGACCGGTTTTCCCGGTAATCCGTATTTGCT (site CAATCATCTGG)
FALSE

// inclusive: recombinant UMI read abundance (log10) at least 0.009? input: ATGAAGACATGGACCGGTTTTCCCGGTAATCCGTATTTGCA (site ATGAAGACTTG)
TRUE

// inclusive: recombinant UMI read abundance (log10) at least 0.009? input: CAGTCGACATGGACCGGTTTTCCCGGTAATCCGTATTTGCG (site CAGTCGACTCA)
FALSE

// inclusive: recombinant UMI read abundance (log10) at least 0.009? input: CCAGGTCCATGGACCGGTTTTCCCGGTAATCCGTATTTGCA (site CCCGGTCCTTG)
FALSE

// inclusive: recombinant UMI read abundance (log10) at least 0.009? input: CAATGCTCATGGACCGGTTTTCCCGGTAATCCGTATTTGAA (site CCATGCTCTTT)
TRUE

// inclusive: recombinant UMI read abundance (log10) at least 0.009? input: TGACGGTCATGGACCGGTTTTCCCGGTAATCCGTATTTGAA (site TGACGGTCTTT)
TRUE

// inclusive: recombinant UMI read abundance (log10) at least 0.009? input: ACCTAGACATGGACCGGTTTTCCCGGTAATCCGTATTTGGC (site ACCTAGACTTC)
FALSE

// inclusive: recombinant UMI read abundance (log10) at least 0.009? input: GTATGAACATGGACCGGTTTTCCCGGTAATCCGTATTTGTA (site GTATGCACTTA)
FALSE

// inclusive: recombinant UMI read abundance (log10) at least 0.009? input: CTAGCGTCATGGACCGGTTTTCCCGGTAATCCGTATTTGGA (site CTAGCGTCTTC)
TRUE

// inclusive: recombinant UMI read abundance (log10) at least 0.009? input: TGACCGGCATGGACCGGTTTTCCCGGTAATCCGTATTTGGC (site TGGCCGGCTGC)
FALSE

// inclusive: recombinant UMI read abundance (log10) at least 0.009? input: CCCCTCTCATGGACCGGTTTTCCCGGTAATCCGTATTTGGG (site CCCATCTCTCC)
FALSE

// inclusive: recombinant UMI read abundance (log10) at least 0.009? input: ACAAGGCCATGGACCGGTTTTCCCGGTAATCCGTATTTGAC (site AGAAGGCCTGT)
FALSE

// inclusive: recombinant UMI read abundance (log10) at least 0.009? input: AAAAGATCATGGACCGGTTTTCCCGGTAATCCGTATTTGGA (site AAAAGATCTTC)
TRUE

// inclusive: recombinant UMI read abundance (log10) at least 0.009? input: GCTCGAGCATGGACCGGTTTTCCCGGTAATCCGTATTTGCA (site GGTCGAGCTTG)
TRUE

// inclusive: recombinant UMI read abundance (log10) at least 0.009? input: TCCACTTCATGGACCGGTTTTCCCGGTAATCCGTATTTGCC (site TCCATTTCTGG)
FALSE

// inclusive: recombinant UMI read abundance (log10) at least 0.009? input: ACGTAGACATGGACCGGTTTTCCCGGTAATCCGTATTTGGG (site ACCTAGACTCC)
TRUE
